Value source: patent US11427548B2

Biological target: Androgen Receptor (Homo sapiens)
Construct: endogenous in cells; host or cells: VCaP cells
Sequence (P10275 1-920): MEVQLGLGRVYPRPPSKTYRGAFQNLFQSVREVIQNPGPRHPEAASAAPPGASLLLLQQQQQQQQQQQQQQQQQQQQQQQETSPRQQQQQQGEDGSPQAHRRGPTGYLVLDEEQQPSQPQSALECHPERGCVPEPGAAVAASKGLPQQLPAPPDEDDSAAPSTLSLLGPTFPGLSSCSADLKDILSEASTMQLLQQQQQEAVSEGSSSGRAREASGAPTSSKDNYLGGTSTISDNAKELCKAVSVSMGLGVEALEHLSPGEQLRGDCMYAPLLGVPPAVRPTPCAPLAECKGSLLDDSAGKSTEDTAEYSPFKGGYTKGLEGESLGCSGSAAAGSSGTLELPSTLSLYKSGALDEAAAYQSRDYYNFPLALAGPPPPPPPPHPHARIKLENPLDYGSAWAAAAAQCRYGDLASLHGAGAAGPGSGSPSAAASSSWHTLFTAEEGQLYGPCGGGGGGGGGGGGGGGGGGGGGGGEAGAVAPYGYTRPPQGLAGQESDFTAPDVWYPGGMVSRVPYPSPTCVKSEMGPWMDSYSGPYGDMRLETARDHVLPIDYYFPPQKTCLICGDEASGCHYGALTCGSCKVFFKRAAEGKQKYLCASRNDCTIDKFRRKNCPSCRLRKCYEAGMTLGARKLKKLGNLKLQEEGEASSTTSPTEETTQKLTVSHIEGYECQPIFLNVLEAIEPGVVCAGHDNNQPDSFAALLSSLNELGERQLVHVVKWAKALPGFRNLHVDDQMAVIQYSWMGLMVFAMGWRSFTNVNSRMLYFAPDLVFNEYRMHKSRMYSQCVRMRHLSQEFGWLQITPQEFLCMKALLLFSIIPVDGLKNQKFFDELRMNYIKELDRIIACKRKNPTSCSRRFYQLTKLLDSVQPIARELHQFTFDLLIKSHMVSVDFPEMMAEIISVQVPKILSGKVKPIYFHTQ
Experiment: Androgen Receptor ELISA assay (PathScan AR ELISA) in VCaP cells: AR degradation, Dmax and DC50
Assay type: cell-based
Conditions: VCaP cells; Table 36; read-out: VCaP DC50
Below, each of the compounds is paired with its reported DC50 value.

Below: 8 compounds and their reported DC50.
compound	DC50
Cc1ncsc1-c1ccc(CNC(=O)[C@@H]2C[C@@H](O)CN2C(=O)[C@@H](NC(=O)CN2CCC(OCCOc3ccc(C(=O)N[C@H]4C(C)(C)[C@H](Oc5ccc(C#N)c(C(F)(F)F)c5)C4(C)C)cc3)CC2)C(C)(C)C)cc1 [Example 640]	< 0.05 µM
Cc1nc(-c2ccn(C[C@H](C)NC(=O)c3cc(COCCCN4CCN(CC(=O)N[C@H](C(=O)N5C[C@H](O)C[C@H]5C(=O)N[C@@H](C)c5ccc(-c6scnc6C)cc5)C(C)(C)C)CC4)[nH]n3)n2)ccc1C#N [Example 767]	> 0.501 µM
Cc1ncsc1-c1ccc([C@H](C)NC(=O)[C@@H]2C[C@@H](O)CN2C(=O)[C@@H](NC(=O)CN2CCN(CC3CCN(c4ccc(C(=O)N[C@H]5C(C)(C)[C@H](Oc6ccc(C#N)c(Cl)c6)C5(C)C)cn4)CC3)CC2)C(C)(C)C)cc1 [Example 853]	< 0.05 µM
Cc1ncsc1-c1ccc([C@H](C)NC(=O)[C@@H]2C[C@@H](O)CN2C(=O)[C@@H](c2cc(N3CCN(CCCc4ccc(C(=O)N[C@H]5C(C)(C)[C@H](Oc6ccc(C#N)c(Cl)c6)C5(C)C)cc4)CC3)no2)C(C)C)cc1 [Example 797]	< 0.05 µM
Cc1ncsc1-c1ccc([C@H](C)NC(=O)[C@@H]2C[C@@H](O)CN2C(=O)[C@@H](C(C)C)n2cc(-c3ccnc(OC4CN(c5ncc(C(=O)NC6C(C)(C)C(Oc7ccc(C#N)c(Cl)c7)C6(C)C)cn5)C4)c3)cn2)cc1 (stereo partly shown) [Example 603]	> 0.501 µM
Cc1ncsc1-c1ccc([C@H](C)NC(=O)[C@@H]2C[C@@H](O)CN2C(=O)[C@@H](NC(=O)COCCc2cn(-c3ccc(C(=O)N[C@H]4C(C)(C)[C@H](Oc5ccc(C#N)c(C(F)(F)F)c5)C4(C)C)cc3)nn2)C(C)(C)C)cc1 [Example 719]	< 0.05 µM
Cc1ncsc1-c1ccc([C@H](C)NC(=O)C2C[C@@H](O)CN2C(=O)[C@@H](NC(=O)CN2C[C@@H]3C[C@H]2CN3CCCc2ccc(C(=O)N[C@H]3C(C)(C)[C@H](Oc4ccc(C#N)c(Cl)c4)C3(C)C)cc2)C(C)(C)C)cc1 (stereo partly shown) [Example 801]	< 0.05 µM
COc1cc(C#N)ccc1[C@H](C)NC(=O)[C@@H]1C[C@@H](O)CN1C(=O)[C@@H](NC(=O)CCCCN1CCN(c2ccc(C(=O)N[C@H]3C(C)(C)[C@H](Oc4ccc(C#N)c(Cl)c4)C3(C)C)cn2)CC1)C(C)(C)C [Example 784]	> 0.501 µM

Requested read-out: DC50. Entry: Cc1ncsc1-c1ccc([C@H](C)NC(=O)[C@@H]2CC(O)CN2C(=O)[C@H](C(C)C)N2Cc3ccc(OCCN4CCN(c5ccc(C(=O)N[C@H]6C(C)(C)[C@H](Oc7ccc(C#N)c(Cl)c7)C6(C)C)cn5)CC4)cc3C2=O)cc1 (stereo partly shown) [Example 856]
> 0.501 µM

Requested read-out: DC50. Entry: Cc1ncsc1-c1ccc(C(C)NC(=O)C2CC(O)CN2C(=O)C(NC(=O)CN2CCOCCOCCN(c3ccc(C(=O)NC4C(C)(C)C(Oc5ccc(C#N)c(Cl)c5)C4(C)C)cc3)CCOCCOCC2)C(C)(C)C)cc1 (stereo not shown) [Example 694]
< 0.05 µM

Requested read-out: DC50. Entry: Cc1ncsc1-c1ccc([C@H](C)NC(=O)[C@@H]2C[C@@H](O)CN2C(=O)[C@@H](NC(=O)COCCN2CCN(c3ccc(C(=O)N[C@H]4C(C)(C)[C@H](Oc5ccc(C#N)c(Cl)c5)C4(C)C)nc3)CC2)C(C)(C)C)cc1 [Example 654]
< 0.05 µM

Requested read-out: DC50. Entry: Cc1ncsc1-c1ccc(CNC(=O)[C@@H]2C[C@@H](O)CN2C(=O)[C@@H](NC(=O)COCCN2C[C@H]3C[C@@H]2CN3c2ccc(C(=O)N[C@H]3C(C)(C)[C@H](Oc4ccc(C#N)c(Cl)c4)C3(C)C)cn2)C(C)(C)C)cc1 [Example 669]
< 0.05 µM

Requested read-out: DC50. Entry: Cc1ncsc1-c1ccc([C@H](C)NC(=O)[C@@H]2C[C@@H](O)CN2C(=O)[C@@H](NC(=O)CN2CCC(O[C@H]3C[C@H](Nc4ccc(C(=O)N[C@H]5C(C)(C)[C@H](Oc6ccc(C#N)c(Cl)c6)C5(C)C)cc4F)C3)CC2)C(C)(C)C)cc1 [Example 706]
< 0.05 µM
